# Test system: Escherichia coli TOP10
# protocol summary: shrunken log2 fold change of peptide-encoding DNA abundance (4.5 h post-induction vs induction); higher = less antimicrobial activity (less host growth inhibition)
# cond: time post-induction: 4.5 h; library: site-saturation at positions 5, 18, 19, 20
Entries and their measured shrunken log2 fold change follow.

{"input sequence": "RRIRGRPPRLPRPRPRPHKTPRP", "shrunken log2 fold change": -0.0617}
{"input sequence": "RRIRLRPPRLPRPRPRPLEDPRP", "shrunken log2 fold change": -0.076}
{"input sequence": "RRIRERPPRLPRPRPRPEFCPRP", "shrunken log2 fold change": 0.112}
{"input sequence": "RRIRRRPPRLPRPRPRPRHVPRP", "shrunken log2 fold change": 0.158}
{"input sequence": "RRIRWRPPRLPRPRPRPSYWPRP", "shrunken log2 fold change": -0.415}
{"input sequence": "RRIRPRPPRLPRPRPRPCRAPRP", "shrunken log2 fold change": 0.0858}
{"input sequence": "RRIRDRPPRLPRPRPRPCSIPRP", "shrunken log2 fold change": -0.0309}
{"input sequence": "RRIRMRPPRLPRPRPRPTSVPRP", "shrunken log2 fold change": 0.172}
{"input sequence": "RRIRWRPPRLPRPRPRPWGSPRP", "shrunken log2 fold change": 0.0134}
{"input sequence": "RRIRDRPPRLPRPRPRPWHEPRP", "shrunken log2 fold change": -0.266}
{"input sequence": "RRIRWRPPRLPRPRPRPMLPPRP", "shrunken log2 fold change": -0.0127}
{"input sequence": "RRIRKRPPRLPRPRPRPAYLPRP", "shrunken log2 fold change": 0.105}
{"input sequence": "RRIRWRPPRLPRPRPRPTQHPRP", "shrunken log2 fold change": 0.333}
{"input sequence": "RRIRVRPPRLPRPRPRPSRMPRP", "shrunken log2 fold change": -0.0384}
{"input sequence": "RRIRARPPRLPRPRPRPGVPPRP", "shrunken log2 fold change": 0.727}

====

# System: Escherichia coli TOP10;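 further: peptides expressed intracellularly from a pBAD plasmid library in pooled LB shake-flask culture, induced with 0.3% L-arabinose, DNA abundance read by NGS, three biological replicates, DESeq2 with apeglm shrinkage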
# protocol summary: shrunken log2 fold change of peptide-encoding DNA abundance (4.5 h post-induction vs induction); higher = less antimicrobial activity (less host growth inhibition)
# cond: time post-induction: 4.5 h; library: site-saturation at positions 5, 18, 19, 20
param class (str): category from shrunken log2 fold change; see ranges 0: < -0.2; 1: ≥ -0.2 and < 0.08; 2: ≥ 0.08

{"input sequence": "RRIRMRPPRLPRPRPRPELVPRP", "test system": "Escherichia coli TOP10", "label class": 1}
{"input sequence": "RRIRYRPPRLPRPRPRPKIWPRP", "test system": "Escherichia coli TOP10", "label class": 0}
{"input sequence": "RRIRGRPPRLPRPRPRPGDIPRP", "test system": "Escherichia coli TOP10", "label class": 2}
{"input sequence": "RRIRKRPPRLPRPRPRPAVWPRP", "test system": "Escherichia coli TOP10", "label class": 2}
{"input sequence": "RRIRLRPPRLPRPRPRPFEDPRP", "test system": "Escherichia coli TOP10", "label class": 1}
{"input sequence": "RRIRRRPPRLPRPRPRPADHPRP", "test system": "Escherichia coli TOP10", "label class": 1}
{"input sequence": "RRIRNRPPRLPRPRPRPDPNPRP", "test system": "Escherichia coli TOP10", "label class": 0}
{"input sequence": "RRIRPRPPRLPRPRPRPSTCPRP", "test system": "Escherichia coli TOP10", "label class": 1}
{"input sequence": "RRIRIRPPRLPRPRPRPWPMPRP", "test system": "Escherichia coli TOP10", "label class": 2}
{"input sequence": "RRIRWRPPRLPRPRPRPMQNPRP", "test system": "Escherichia coli TOP10", "label class": 2}
{"input sequence": "RRIRFRPPRLPRPRPRPQIQPRP", "test system": "Escherichia coli TOP10", "label class": 0}
{"input sequence": "RRIRLRPPRLPRPRPRPWGRPRP", "test system": "Escherichia coli TOP10", "label class": 1}
{"input sequence": "RRIRSRPPRLPRPRPRPNGCPRP", "test system": "Escherichia coli TOP10", "label class": 1}
{"input sequence": "RRIRSRPPRLPRPRPRPSMAPRP", "test system": "Escherichia coli TOP10", "label class": 2}
{"input sequence": "RRIRYRPPRLPRPRPRPQDIPRP", "test system": "Escherichia coli TOP10", "label class": 0}
